molecular target: eqBuChE (BuChE, E.C.3.1.1.8, selected from horse serum) (Equus caballus); construct: BuChE (E.C.3.1.1.8, selected from horse serum); purchased Sigma; host or cells: horse serum; assay: Cholinesterase inhibitory activity (DTNB/BTC), eqBuChE; assay type: biochemical; settings: read-out: IC50 (nM) ± SEM eqBuChE
Sequence (P81908 whole entry): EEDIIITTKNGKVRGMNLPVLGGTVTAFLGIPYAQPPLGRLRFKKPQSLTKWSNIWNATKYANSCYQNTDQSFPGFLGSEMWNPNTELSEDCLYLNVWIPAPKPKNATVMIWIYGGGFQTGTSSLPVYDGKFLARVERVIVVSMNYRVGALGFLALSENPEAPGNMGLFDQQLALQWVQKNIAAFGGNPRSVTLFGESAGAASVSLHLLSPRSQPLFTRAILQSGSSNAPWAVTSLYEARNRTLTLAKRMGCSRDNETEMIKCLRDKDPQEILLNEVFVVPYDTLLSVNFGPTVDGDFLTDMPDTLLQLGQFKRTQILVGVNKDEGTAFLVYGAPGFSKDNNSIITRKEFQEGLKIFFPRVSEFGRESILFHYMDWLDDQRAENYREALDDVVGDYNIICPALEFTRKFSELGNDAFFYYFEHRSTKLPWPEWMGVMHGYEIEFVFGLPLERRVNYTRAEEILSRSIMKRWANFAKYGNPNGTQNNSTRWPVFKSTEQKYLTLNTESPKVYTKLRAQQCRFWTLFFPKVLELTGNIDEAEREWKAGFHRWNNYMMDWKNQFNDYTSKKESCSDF
measure.name: IC50 (nM)
Record the value in nM, omitting the unit from your answer.

Completed entries (count: 4):
Lab note: CCCN(CCC)Cc1ccccc1NC(=O)c1cccc(NC(=O)c2cccs2)c1 gave IC50 of 122

Lab note: CCN(CC)Cc1ccccc1CNC(=O)c1cccc(NC(=O)c2ccc(C=O)cc2)c1 gave IC50 of 0.89

Lab note: CCN(CC)Cc1ccccc1CNC(=O)c1cccc(NC(=O)c2ccccn2)c1 gave IC50 of 0.34

Lab note: CCN(CC)Cc1ccccc1CNC(=O)c1cccc(NC(=O)c2ncc[nH]2)c1 gave IC50 of 0.52

Others:
Lab note: CCN(CC)Cc1ccccc1CNC(=O)c1cccc(NC(=O)c2nccs2)c1 gave IC50 of 0.75
